# Test system: soluble serum DPPIV/CD26, 175 kDa form, purified from normal human serum
# procedure-summary: DPPIV activity assay (hydrolysis of Gly-Pro-pNA; Michaelis-Menten kinetics and inhibition)
# Format: biochemical
# run-parameters: substrate Gly-Pro-pNA
endpoint-name: IC50 (µM)
A number alone suffices; assume µM.

Bench note: what IC50 did CC[C@H](C)[C@H](N)C(=O)N1CCC[C@H]1C(=O)N[C@H](C(=O)O)[C@@H](C)CC [Diprotin A] show?
250
